// provenance: patent US20150086555A1

system-tested: hemagglutinin on whole influenza A virions, A/Solomon Islands/3/06 H1N1 (Influenza A virus A/Solomon …)
method-description: cell-based or functional assay
quantity-measured: % Neutralization (%)
One number for each entry, in %.

Parameters: items (list). Returns: % Neutralization for each item.
1. TCN-560 (5084_P10) (antibody, V domains shown) VH: EVQLVESGGGLVQPGGSLRLSCAASGFIFRNYWMSWVRQAPGKGLEWVANIKQDGREKYYVDSLRGRVNISRDNAENSLYLHMNSLRVEDTAVYFCARARMVVVTGDGFDVWGHGTMVTVSS VL: DIQMTQSPSSLSASVGDRVTITCRASQNIKRYFNWYQQKPGKAPKLLIYAASNLENGVPSRFSGSGSGTDFTLTISSLQPEDFATYYCQQSFSKSWTFGQGTNVDIK
2. TCN-547 (5092_F11) (antibody, V domains shown) VH: QVQLQESGPGLVKPSQTLSLTCTVSGDSISSVDHYWSWIRQHPVKGLEWIGFMYYSASTYYNPSLKSRVTISTDTSKNQFSLRLSSVTAADTAVYYCARGTCAGDCSLHYYYYGLDVWGQGRTVTVSS VL: DIQMTQSPSSLSASVGDRVTITCRASQSISSYLNWYQHKPGKAPKVLMYAVSILQSGVPSRFSGSGSGADFTLTISSLQPEDFATYYCQQSYSSPLTFGGGTKVEIK
3. TCN-557 (5081_A04) (antibody, V domains shown) VH: QVQLVQSGAEVKKPGASVKVSCKASGHTFTGYYIHWVRQAPGQGLEWMGWINPDSGATSSAQNFQGRVTMTGDTSSSTAYMELSRLSFDDTAVYYCARVLFTSPFDFWGEGTLVTVSS VL: QAVVTQEPSLAVSPGGTVTLTCGSSTGAVTRGHYPYWFQQKPGQAPRALIYDSAGNRHSWTPARFSGSLLGGKAALTLSGAQPEDEAEYYCLLSYSGVWVFGGGTKLTVL
4. TCN-556 (5089_K12) (antibody, V domains shown) VH: QVQLVQSGAEVKKPGASVKVSCKASGYTFIGYDMHWVRQAPGQGLEWMGWINAKRGGTNYAQKFQGRVTMTRDTSISTAYMELNSLRSDDTAVYYCARGVGSRTTIFGVLNPEFDYWGQGTLVTVSS VL: QSALTQPPSASGSPGQSVTISCTGSSSDVGGYDYVSWYQQHPGKAPKLLIYEVTKRPSGVPDRFSGSKSGNTASLTVSGLQAEDEADYYCSSYAGNYNHVFGPGTKVTVL

Ans:
[0, 0, 7, 0]
